tested on: conditioned fear stressed animal model (abnormal evacuation); experiment: Conditioned fear stress (CFS)-induced abnormal evacuation, wet feces weight; type: in vivo, rat; details: oral administration 1 hour before CFS loading; 30 minutes CFS; linear regression, n=12
Structures can show the parent of a compound that is named as a salt.
Consider the following compounds; for each one, report its ED50 value of the controlling ratio of wet feces weights increased by CFS loading.
Give bare numbers, in mg/kg.

compound	output.unit	value.reported
Cc1nccn1C[C@H]1CCc2c(c3cccc4c3n2CCC4)C1=O [Cilansetron hydrochloride, cilansetron hydrochloride]	mg/kg	0.094
Cn1cc(C(=O)[C@@H]2CCc3nc[nH]c3C2)c2ccccc21 [Ramosetron hydrochloride, ramosetron hydrochloride]	mg/kg	0.012
Cc1[nH]cnc1CN1CCc2c(c3ccccc3n2C)C1=O [Alosetron hydrochloride, alosetron hydrochloride]	mg/kg	0.078

Okay, next one:
Inquiry: GET /values?readout=ED50 value of the controlling ratio of wet feces weights increased by CFS loading&item= CN(C)C(=O)C(CCN1CCC(O)(c2ccc(Cl)cc2)CC1)(c1ccccc1)c1ccccc1 [Loperamide hydrochloride, loperamide hydrochloride]
Reply text: 9.000
